Test system: STK35;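 note: KINOMEscan kinase panel screen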
Conditions: concentration: 1 μM, replicates: in singlicate; n = 1
READOUT TYPE: %Inh (%)
Your answer is read as %, so omit the unit and give the number.

In the examples that follow, each entry is paired with its recorded %Inh.
>>> numeric_result("FC(F)(F)c1ccc(-c2nn3ncccc3c2-c2ccnc(Nc3cccc(C(F)(F)F)c3)n2)cc1 [GW828205]")
0
>>> numeric_result("Cl.Cn1ccc(-c2cccc(Nc3ccnc4cc(-c5nccs5)ccc34)c2)n1 [GW525701]")
0
>>> numeric_result("Cc1cccc(-c2nc(Nc3ccc4[nH]nnc4c3)c3ccccc3n2)n1 [GW867587]")
0
>>> numeric_result("NC(=O)c1sc(-n2cnc3ccccc32)cc1OCc1ccccc1F [GSK1024306]")
0
>>> numeric_result("Fc1cccc(COc2ccc(Nc3ncnc4sc(-c5ccc[nH]5)cc34)cc2Cl)c1 [GW707818]")
0
>>> numeric_result("O=C(CCO)NCCn1ccc2ncnc(Nc3ccc(Oc4cccc(C(F)(F)F)c4)c(Cl)c3)c21")
5

Using STK35 as the test system, report measured %Inh of Fc1cccc(COc2ccc(Nc3ncnc4nn5ccccc5c34)cc2Cl)c1 [GW689066] . 0

Look up STK35 data: %Inh of O=c1cc(N2CCOCC2)nc2n(Cc3cccc(Cl)c3)ccn12 [GSK2296823] , then report it. 6
